- target_of_assay: furin, P09958;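 further: purified furin at 1:10 enzyme:substrate in 50 mM HEPES pH 7.5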
- Sequence (P09958 whole entry): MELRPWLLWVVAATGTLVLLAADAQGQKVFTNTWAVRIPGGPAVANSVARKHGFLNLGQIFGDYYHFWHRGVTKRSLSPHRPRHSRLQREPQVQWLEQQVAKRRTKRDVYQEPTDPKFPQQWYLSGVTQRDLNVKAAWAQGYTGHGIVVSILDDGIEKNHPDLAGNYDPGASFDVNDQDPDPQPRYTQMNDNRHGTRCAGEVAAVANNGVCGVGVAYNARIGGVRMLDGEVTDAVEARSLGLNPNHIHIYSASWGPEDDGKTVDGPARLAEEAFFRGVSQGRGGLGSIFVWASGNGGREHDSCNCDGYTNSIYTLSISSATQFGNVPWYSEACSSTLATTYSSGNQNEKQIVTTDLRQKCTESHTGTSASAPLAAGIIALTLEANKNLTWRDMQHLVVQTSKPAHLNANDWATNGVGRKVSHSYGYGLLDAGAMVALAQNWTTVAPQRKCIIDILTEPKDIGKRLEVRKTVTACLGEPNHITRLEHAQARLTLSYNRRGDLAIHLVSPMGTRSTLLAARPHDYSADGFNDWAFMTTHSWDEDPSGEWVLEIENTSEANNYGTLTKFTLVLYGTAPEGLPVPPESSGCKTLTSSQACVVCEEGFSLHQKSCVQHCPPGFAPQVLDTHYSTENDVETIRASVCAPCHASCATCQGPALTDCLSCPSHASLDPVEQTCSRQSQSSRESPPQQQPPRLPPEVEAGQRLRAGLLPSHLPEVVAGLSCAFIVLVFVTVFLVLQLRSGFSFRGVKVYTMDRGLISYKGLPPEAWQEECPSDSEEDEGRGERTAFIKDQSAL
- method_notes: furin cleavage Z-score vs untreated control; higher = more cleavage, active = 3.5 or more, inactive = 1 or less, 8 variable residues between constant flanks
- test_settings: 7.5 min
The list shows a part of the results. No count for the full screen is at hand.
Answer false if furin cleavage Z-score is under -0.4, and true if it is -0.4 or more.

Solved entries (count: 10):
query_sequence: CARLASCRPLAGNASASA [HC388]
class_name: false
//
query_sequence: CANRKRNKKQAGNASASA [FS-1239]
class_name: true
//
query_sequence: CADNVTPIDTAGNASASA [HC1435]
class_name: true
//
query_sequence: CATRSRSERDAGNASASA [FS-884]
class_name: true
//
query_sequence: CAIKLGALTGAGNASASA [HC630]
class_name: false
//
query_sequence: CARASRNKRPAGNASASA [FS-1559]
class_name: true
//
query_sequence: CAPLTRSKRDAGNASASA [FS-700]
class_name: true
//
query_sequence: CAVVRCSMSYAGNASASA [HC2033]
class_name: true
//
query_sequence: CARPRRRYYPAGNASASA [FS-1763]
class_name: true
//
query_sequence: CARPRRSTSPAGNASASA [FS-3026]
class_name: true

Entry CARDLAVAVEAGNASASA [HC643] : is its furin cleavage Z-score no less than -0.4? true

furin cleavage Z-score >= -0.4 for CAQGYKVLVLAGNASASA [HC784] ? true

Can CAVPAKSVCGAGNASASA [HC409] be said to have furin cleavage Z-score at or above -0.4? false

Quick check, furin cleavage Z-score >= -0.4? CAYVQMVIIKAGNASASA [HC627] false

furin cleavage Z-score >= -0.4 for CAYTNVDQDLAGNASASA [HC711] ? false

Entry CAESTTPCSGAGNASASA [HC1977] : is its furin cleavage Z-score no less than -0.4? false
